Molecular target: T1, Extracellular domain of cyno PD1 (cPD1-ECD) (Macaca fascicularis (cynomolgus))
T1 construct: Expressed with a hexahistidine tag or as Fc fusion; also called cynoPD1-ECD; cynoPD-1-ECD
T1 chain: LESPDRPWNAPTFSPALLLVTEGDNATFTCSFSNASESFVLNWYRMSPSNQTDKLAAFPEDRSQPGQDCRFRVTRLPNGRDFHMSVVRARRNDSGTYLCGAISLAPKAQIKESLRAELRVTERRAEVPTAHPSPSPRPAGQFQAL
Test: SPR ProteOn, captured mAb, cynoPD1-ECD analyte;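 also: ProteOn XPR36 SPR with antibodies held by anti-IgG Fc on a GLC chip, on-rate, off-rate and KD derived from a Langmuir one-to-one fit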
// reported koff for each item listed
Please reply with the bare figure in s⁻¹ and do not write the unit itself.

// solved cases for koff follow
Binder	Numeric Readout
PD1B71 (antibody, V domains shown, Tested as IgG2sigma/kappa; also called PD1H108/PH9L3) VH: QVQLVQSGAEVKKPGSSVKVSCKASGGTFSSYAISWVRQAPGQGLEWMGGIIPIFGTANYAQKFQGRVTITADESTSTAYMELSSLRSEDTAVYYCARGTLDRTGHLDYWGQGTLVTVSS VL: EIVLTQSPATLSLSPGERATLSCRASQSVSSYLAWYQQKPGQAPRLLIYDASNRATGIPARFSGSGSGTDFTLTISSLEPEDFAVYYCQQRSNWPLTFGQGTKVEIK	0.0203
PD1B175 (antibody, V domains shown, Tested as IgG2sigma; also called PD1H163/PH9L3) VH: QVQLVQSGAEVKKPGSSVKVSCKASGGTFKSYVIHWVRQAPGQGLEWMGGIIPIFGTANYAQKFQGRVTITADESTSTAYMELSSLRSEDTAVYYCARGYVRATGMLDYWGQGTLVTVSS VL: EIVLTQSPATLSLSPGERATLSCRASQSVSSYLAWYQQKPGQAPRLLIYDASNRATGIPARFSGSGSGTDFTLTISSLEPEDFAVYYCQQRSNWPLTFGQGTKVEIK	0.0064

Now for the binder whose koff we want.
Prompt: Supply recorded koff for PD1B187 (antibody, V domains shown, Tested as IgG2sigma; also called PD1H3/PD1L148) VH: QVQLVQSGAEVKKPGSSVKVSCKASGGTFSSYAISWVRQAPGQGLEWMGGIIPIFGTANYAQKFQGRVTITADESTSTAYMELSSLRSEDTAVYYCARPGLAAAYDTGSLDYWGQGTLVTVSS VL: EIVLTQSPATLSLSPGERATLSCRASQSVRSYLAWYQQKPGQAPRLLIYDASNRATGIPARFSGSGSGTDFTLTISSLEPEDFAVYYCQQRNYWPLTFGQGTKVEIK here.
Response: 0.00157
